Hi there, I'd appreciate the recorded pEC50 for every entry that follows.
- target.system: hGIPR (Homo sapiens, UniProt P48546)
- Sequence (P48546 22-466): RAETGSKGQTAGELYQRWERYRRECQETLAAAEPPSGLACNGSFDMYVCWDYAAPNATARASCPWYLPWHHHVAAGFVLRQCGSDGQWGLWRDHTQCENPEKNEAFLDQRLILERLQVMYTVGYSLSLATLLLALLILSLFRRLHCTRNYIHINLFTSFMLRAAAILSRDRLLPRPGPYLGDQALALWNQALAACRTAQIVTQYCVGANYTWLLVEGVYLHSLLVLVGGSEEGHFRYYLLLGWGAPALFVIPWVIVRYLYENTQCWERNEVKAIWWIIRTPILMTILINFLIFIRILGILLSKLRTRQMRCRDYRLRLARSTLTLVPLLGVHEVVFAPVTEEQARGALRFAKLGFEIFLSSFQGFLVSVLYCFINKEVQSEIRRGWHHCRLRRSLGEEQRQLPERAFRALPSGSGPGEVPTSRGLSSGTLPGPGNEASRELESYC
- test.protocol: Functional cAMP activity in the presence of 1% HSA
- Format: cell-based
- condition.parameters: read-out: cAMP Rel EC50, hGIPR
Starred links: 1 amine or outer side, 2 acyl side, 3 side chain; linkers in the order of their positions; H or OH if unused. Non-standard residues stand in square brackets, D forms with d. Groups on a side chain read outwards from the residue. No end group written: not given here. *: point of attachment. C20 diacid = O=C(O)CCCCCCCCCCCCCCCCCCC(=O)*; C18 diacid = O=C(O)CCCCCCCCCCCCCCCCC(=O)*; Phe(4-CN) = N#Cc1ccc(C[C@H](N)C(=O)O)cc1; αMePhe(2-F) = C[C@](N)(Cc1ccccc1F)C(=O)O; γGlu = O=C(O)[C@H](CCC(=O)[*:2])N[*:1]; αMe4Pal = C[C@](N)(Cc1ccncc1)C(=O)O; αMeY = C[C@](N)(Cc1ccc(O)cc1)C(=O)O; 4Pal = N[C@@H](Cc1ccncc1)C(=O)O; αMeL = CC(C)C[C@](C)(N)C(=O)O; αMeS = C[C@](N)(CO)C(=O)O; Orn = NCCC[C@H](N)C(=O)O; AEEA = NCCOCCOCC(=O)O; Aib = CC(C)(N)C(=O)O
Hey, just a heads up that pEC50 is the negative log base 10 of the concentration in molar.

Form: Entry = H-Y[Aib]QGT[αMePhe(2-F)]TSD[4Pal]SILLDKK([γGlu-γGlu-C18 diacid])AQ[Aib]AFIE[4Pal]LEEGGPSSGAPPPSGTE-NH2 [Example 550] | System = hGIPR (Homo sapiens, UniProt P48546) | pEC50 = ____
8.23

For the record H-Y[Aib]QGTFTSD[4Pal][αMeS]Q[αMeL]LD[Orn]K([dE-γGlu-C18 diacid])AQ[αMe4Pal]QFIE[αMeY]LIE[Aib]GPSSGAPPPSGGGE-NH2 [Example 1187] , what value of pEC50 is listed for hGIPR (Homo sapiens, UniProt P48546)?
8.15

// fetch hGIPR (Homo sapiens, UniProt P48546) pEC50 for H-Y[Aib]QGTFTSDFS[Orn][αMeL]LDKK([AEEA-AEEA-γGlu-C18 diacid])AQ[Aib]AFIEYLLE[Aib]G[4Pal]SSGAPPPSGS-NH2 [Example 183]
7.86

State its pEC50 on hGIPR (Homo sapiens, UniProt P48546): Y[Aib]QGTFTSD[4Pal]SQ[αMeL]LDKK([AEEA-γGlu-C18 diacid])AQ[Aib]AFIEYLLE[dA]GPSSGAPPPSGS-NH2 [Example 820]
7.76

Record lookup: for hGIPR (Homo sapiens, UniProt P48546), what pEC50 belongs to H-Y[Aib]QGT[αMePhe(2-F)]TSD[Phe(4-CN)]SILLDKQAQK([AEEA-AEEA-γGlu-C20 diacid])AFIEYLLEGGPSSGEPPPSAG-NH2 [Example 350] ?
7.47

Value wanted: pEC50 (hGIPR (Homo sapiens, UniProt P48546)) of entry H-Y[Aib]QGTFTSDFS[Orn][αMeL]LDKK([AEEA-AEEA-γGlu-C18 diacid])AQ[Aib]AFIEYLLE[Aib]GESSGAPPPSGS-NH2 [Example 179]
7.67
